# Test system: XF498
# protocolSummary: NCI tumour cell line growth inhibition, 48 h
Calls of active or inactive are those of the source. No stated cut-off is given here; in the data, active = GI50 up to about 1.1 µM and inactive = higher.
Pick one and only one: 1.0 = active, 0.0 = inactive

Use these answered entries as a reference point.
{"molecule": "CC1=C(N2CC2)C(=O)c2nc3n(c2C1=O)CCC3O (centres undefined)", "qualitativeLabel": 0.0}
{"molecule": "C[C@@H]1OC2(O)[C@H]3CCCN3S(=O)(=O)CCN2C1=O (some centres undefined)", "qualitativeLabel": 1.0}
{"molecule": "c1cc(N(CCn2cccn2)CCn2cccn2)cc(N(CCn2cccn2)CCn2cccn2)c1", "qualitativeLabel": 0.0}

Next:
query: Which result was noted for this molecule in the test: COc1ccc(-c2oc3c(OC)c(OC)c(OC)c(O)c3c(=O)c2OC)cc1O
result: 1.0
